System: K-562 leukemia
assaySummary: NCI-60 one-dose screen, 48 h (100 = growth as untreated, 0 = no growth, -100 = all killed)
assayContext: 10 µM unless noted
Experimental: Cells are grown in 96 well plates and exposed to the test compound for 48 hours. Compounds are tested at a single concentration, which is 10^-5 M for most compounds. The reported endpoint is percent growth (GI% or GIPRCNT), where numbers from 0 - 100% represent growth inhibition, and numbers from -100% - 0 represent cell death. For example, a value of 40 represents 60% growth inhibition. A value of 0 means no net growth occurred over the course of the experiment. […]
This is part of a sample that, as a whole, favours compounds with a hit. Of some 83,000 tested, about 20% had one in any assay.
Returns: string. Value is yes (1) if measured growth is below 20%, and no (0) if it is greater than or equal to it.

Hello, I'm reviewing records and need to know if growth of Cc1ccc(F)cc1NC(=O)c1cc(Cl)ccc1Nc1ccccc1 is below 20%. Could you check? no (0)

Is 20% strictly greater than the compound's reported growth? compound: O=C1Nc2ccccc2/C1=C/c1cccs1 no (0)

Regarding O=C1c2cc(Br)ccc2Oc2cc([N+](=O)[O-])ccc2N1c1ccc(I)cc1F , kindly confirm whether its growth is beneath 20%. no (0)

Bench note: check whether O=c1oc2ccc(F)cc2c(=O)n1-c1ccc(Br)cc1F shows growth below 20% yes (1)

Is growth strictly under 20% for the entry COc1cc(/C=C2\CN(C)C/C(=C\c3cc(CN4CCCC4)c(O)c(OC)c3)C2=O)cc(CN2CCCC2)c1O ? yes (1)

Input COc1ccc(-n2c(C(O)c3ccccc3)nn(CN3CCOCC3)c2=S)cc1 (stereo not drawn) ; condition: growth strictly below 20%. Does it hold? no (0)

Just wondering, is growth of O=c1oc2ccc(Cl)cc2c(=O)n1-c1ccc(F)cc1F below 20%? yes (1)

Input O=S1(=O)CCN(Cc2ccccc2)CC1 ; condition: growth strictly below 20%. Does it hold? no (0)

Hello, I'm reviewing records and need to know if growth of CCN1C(=O)N(CC)C2C1NC(=S)N2/N=C/C=C/c1ccccc1OC (stereo not drawn) is below 20%. Could you check? yes (1)

I wonder whether OC(c1ccccc1)c1nnc(SCc2ccccc2)n1Cc1ccccc1 (stereo not drawn) has growth below 20%. Can you tell? no (0)

Dear reviewer, please state whether O=c1cc(NC2CCN(CCCc3ccccc3)CC2)c2cc(Cl)ccc2o1 has growth strictly beneath 20%. yes (1)

growth under 20%? Item: COc1c2ccoc2c(/C=C/C=O)c2oc(-c3ccccc3)cc(=O)c12 no (0)

hey, is growth for O=c1oc2ccc(Cl)cc2c(=O)n1-c1cc(C(F)(F)F)cc(C(F)(F)F)c1 lower than 20% or not? yes (1)

Please check: growth for CCCCc1c(CCC)c(=N)c2ccccc2n1C , strictly under 20% or not? yes (1)

Say whether its growth is strictly beneath 20%. Entry: O=c1oc2ccc(Cl)cc2c(=O)n1-c1ccc(I)cc1F yes (1)

Is growth of O=C(/C=C/c1ccc(C(F)(F)F)cc1)c1ccc(Nc2nc(NCCO)nc(Nc3ccc(Cl)cc3)n2)cc1 strictly below 20%? yes (1)

In plain terms, does COc1cccc(-c2nn(C)c3sc(C(=O)NCCN4CCN(c5ccccc5F)CC4)cc23)c1 come in under 20% for growth? yes (1)

Answer whether the compound CCCCNc1nc(NC(C)(C)C)nc(NC(C)(C)C)n1 has growth strictly less than 20% no (0)
